- System: A549 (lung)
- Test Method Notes: MTT cytotoxicity assay, A549
- Type: cell-based
- Measurement Context: Homo sapiens, A549, 96 h, read-out: IC50 (nM) A549
Form field: IC50 (one value per entry).
Experimental Endpoint: IC50 (nM)

Compound | Experimental Result
COC(=O)c1cc(NC(=O)c2cc(NC(=O)c3cc(-c4ccc(NC(=O)CCCOc5cc6c(cc5OC)C(=O)N5CCC[C@H]5C=N6)cc4)cn3C)cn2C)cn1C [Compound 16g] | 2.3
COC(=O)c1cc(-c2ccc(NC(=O)c3cc(-c4ccc(NC(=O)CCCOc5cc6c(cc5OC)C(=O)N5CCC[C@H]5C=N6)cc4)cn3C)cc2)cn1C [Compound 16b] | 0.54
COC(=O)c1cc(-c2ccc(NC(=O)c3cc(NC(=O)CCCOc4cc5c(cc4OC)C(=O)N4CCC[C@H]4C=N5)cn3C)cc2)cn1C [Compound 16e] | 0.056
CCOC(=O)c1nc(NC(=O)c2cc(-c3ccc(NC(=O)CCCOc4cc5c(cc4OC)C(=O)N4CCC[C@H]4C=N5)cc3)cn2C)cn1C [Compound 16d] | 0.47
COC(=O)c1cc(-c2ccc(NC(=O)CCCOc3cc4c(cc3OC)C(=O)N3CCC[C@H]3C=N4)cc2)cn1C [Compound 16a] | 7.5

====

Form field: log10(IC50) (one value per entry).
- Test system: WI38
- Test Method Notes: MTT cytotoxicity assay, non-tumour cell line WI38
- Type: cell-based
- Measurement Context: Homo sapiens, WI-38, 96 h, read-out: IC50 (nM) WI38
Experimental Endpoint: log10(IC50) (log10 of the value in nM)

Compound | Experimental Endpoint | Experimental Result
COC(=O)c1cc(NC(=O)c2nc(NC(=O)c3cc(-c4ccc(NC(=O)CCCOc5cc6c(cc5OC)C(=O)N5CCC[C@H]5C=N6)cc4)cn3C)cn2C)cn1C [Compound 16h] | log10(IC50) | 1.82
COC(=O)c1cc(-c2ccc(NC(=O)c3cc(-c4ccc(NC(=O)CCCOc5cc6c(cc5OC)C(=O)N5CCC[C@H]5C=N6)cc4)cn3C)cc2)cn1C [Compound 16b] | log10(IC50) | 2.20
COC(=O)c1cc(NC(=O)c2cc(NC(=O)c3cc(-c4ccc(NC(=O)CCCOc5cc6c(cc5OC)C(=O)N5CCC[C@H]5C=N6)cc4)cn3C)cn2C)cn1C [Compound 16g] | log10(IC50) | 1.62
COC(=O)c1cc(-c2ccc(NC(=O)c3cc(NC(=O)CCCOc4cc5c(cc4OC)C(=O)N4CCC[C@H]4C=N5)cn3C)cc2)cn1C [Compound 16e] | log10(IC50) | 2.68
COC(=O)c1cc(-c2ccc(NC(=O)c3nc(NC(=O)CCCOc4cc5c(cc4OC)C(=O)N4CCC[C@H]4C=N5)cn3C)cc2)cn1C [Compound 16f] | log10(IC50) | 2.11

====

Form field: IC50 (one value per entry).
- System: A549 (lung)
- Test Method Notes: MTT cytotoxicity assay, A549
- Type: cell-based
- Measurement Context: Homo sapiens, A549, 96 h, read-out: IC50 (nM) A549

Compound | System Name | IC50 (nM)
COC(=O)c1cc(NC(=O)c2cc(-c3ccc(NC(=O)CCCOc4cc5c(cc4OC)C(=O)N4CCC[C@H]4C=N5)cc3)cn2C)cn1C [Compound 16c] | A549 (lung) | 0.019
COC(=O)c1cc(-c2ccc(NC(=O)c3nc(NC(=O)CCCOc4cc5c(cc4OC)C(=O)N4CCC[C@H]4C=N5)cn3C)cc2)cn1C [Compound 16f] | A549 (lung) | 0.034
COC(=O)c1cc(NC(=O)c2nc(NC(=O)c3cc(-c4ccc(NC(=O)CCCOc5cc6c(cc5OC)C(=O)N5CCC[C@H]5C=N6)cc4)cn3C)cn2C)cn1C [Compound 16h] | A549 (lung) | 0.45

====

- System: MCF7 (breast)
- Test Method Notes: MTT cytotoxicity assay, MCF7
- Format: cell-based
- Measurement Context: Homo sapiens, MCF7, 96 h, read-out: IC50 (nM) MCF7
Experimental Endpoint: IC50 (nM)

Compound | System Name | Experimental Endpoint | Experimental Result
COC(=O)c1cc(-c2ccc(NC(=O)c3cc(-c4ccc(NC(=O)CCCOc5cc6c(cc5OC)C(=O)N5CCC[C@H]5C=N6)cc4)cn3C)cc2)cn1C [Compound 16b] | MCF7 (breast) | IC50 | 0.9
CCOC(=O)c1nc(NC(=O)c2cc(-c3ccc(NC(=O)CCCOc4cc5c(cc4OC)C(=O)N4CCC[C@H]4C=N5)cc3)cn2C)cn1C [Compound 16d] | MCF7 (breast) | IC50 | 0.37
COC(=O)c1cc(NC(=O)c2cc(NC(=O)c3cc(-c4ccc(NC(=O)CCCOc5cc6c(cc5OC)C(=O)N5CCC[C@H]5C=N6)cc4)cn3C)cn2C)cn1C [Compound 16g] | MCF7 (breast) | IC50 | 0.31
COC(=O)c1cc(-c2ccc(NC(=O)CCCOc3cc4c(cc3OC)C(=O)N3CCC[C@H]3C=N4)cc2)cn1C [Compound 16a] | MCF7 (breast) | IC50 | 1.91
COC(=O)c1cc(NC(=O)c2nc(NC(=O)c3cc(-c4ccc(NC(=O)CCCOc5cc6c(cc5OC)C(=O)N5CCC[C@H]5C=N6)cc4)cn3C)cn2C)cn1C [Compound 16h] | MCF7 (breast) | IC50 | 0.075
COC(=O)c1cc(NC(=O)c2cc(-c3ccc(NC(=O)CCCOc4cc5c(cc4OC)C(=O)N4CCC[C@H]4C=N5)cc3)cn2C)cn1C [Compound 16c] | MCF7 (breast) | IC50 | 1.7

====

- System: A2780 (ovarian)
- Test Method Notes: MTT cytotoxicity assay, A2780
- Assay type: cell-based
- Measurement Context: Homo sapiens, A2780, 96 h, read-out: IC50 (nM) A2780
Form field: log10(IC50) (one value per entry).
Experimental Endpoint: log10(IC50) (log10 of the value in nM)

Compound | Experimental Result
COC(=O)c1cc(-c2ccc(NC(=O)c3nc(NC(=O)CCCOc4cc5c(cc4OC)C(=O)N4CCC[C@H]4C=N5)cn3C)cc2)cn1C [Compound 16f] | -1.68
COC(=O)c1cc(-c2ccc(NC(=O)CCCOc3cc4c(cc3OC)C(=O)N3CCC[C@H]3C=N4)cc2)cn1C [Compound 16a] | 0.27
COC(=O)c1cc(-c2ccc(NC(=O)c3cc(-c4ccc(NC(=O)CCCOc5cc6c(cc5OC)C(=O)N5CCC[C@H]5C=N6)cc4)cn3C)cc2)cn1C [Compound 16b] | -0.25
CCOC(=O)c1nc(NC(=O)c2cc(-c3ccc(NC(=O)CCCOc4cc5c(cc4OC)C(=O)N4CCC[C@H]4C=N5)cc3)cn2C)cn1C [Compound 16d] | -0.82
COC(=O)c1cc(-c2ccc(NC(=O)c3cc(NC(=O)CCCOc4cc5c(cc4OC)C(=O)N4CCC[C@H]4C=N5)cn3C)cc2)cn1C [Compound 16e] | -1.89
COC(=O)c1cc(NC(=O)c2cc(NC(=O)c3cc(-c4ccc(NC(=O)CCCOc5cc6c(cc5OC)C(=O)N5CCC[C@H]5C=N6)cc4)cn3C)cn2C)cn1C [Compound 16g] | -0.62
COC(=O)c1cc(NC(=O)c2cc(-c3ccc(NC(=O)CCCOc4cc5c(cc4OC)C(=O)N4CCC[C@H]4C=N5)cc3)cn2C)cn1C [Compound 16c] | -0.02

====

- System: A2780 (ovarian)
- Test Method Notes: MTT cytotoxicity assay, A2780
- Format: cell-based
- Measurement Context: Homo sapiens, A2780; 96 hours exposure, MTT; read-out: IC50 (nM) A2780
Experimental Endpoint: IC50 (nM)

Compound | Experimental Endpoint | Experimental Result
COC(=O)c1ccc(NC(=O)c2ccc(NC(=O)CCCOc3cc4c(cc3OC)C(=O)N3CCC[C@H]3C=N4)n2C)n1C [GWL-78, reference compound] | IC50 | 0.57

====

- System: WI38
- Test Method Notes: MTT cytotoxicity assay, non-tumour cell line WI38
- Format: cell-based
- Measurement Context: Homo sapiens, WI-38, 96 h, read-out: IC50 (nM) WI38
Form field: IC50 (one value per entry).

Compound | Unit Of Measurement | IC50
COC(=O)c1cc(NC(=O)c2cc(-c3ccc(NC(=O)CCCOc4cc5c(cc4OC)C(=O)N4CCC[C@H]4C=N5)cc3)cn2C)cn1C [Compound 16c] | nM | 426
CCOC(=O)c1nc(NC(=O)c2cc(-c3ccc(NC(=O)CCCOc4cc5c(cc4OC)C(=O)N4CCC[C@H]4C=N5)cc3)cn2C)cn1C [Compound 16d] | nM | 1240
COC(=O)c1cc(-c2ccc(NC(=O)CCCOc3cc4c(cc3OC)C(=O)N3CCC[C@H]3C=N4)cc2)cn1C [Compound 16a] | nM | 160
